Details: C18 column, methanol-water, 70% methanol in the mobile phase
Protocol: For chromatographic analysis, stock solutions (200 μg/mL) of each of the investigated samples were prepared in methanol. […] The absorbance of the analytes during a chromatographic run was performed at 200 nm. […] H^1NMR spectra were recorded using Bruker NMR spectrometer (Bruker GmbH, Germany), […]
result_type: Log k (logarithm of the retention factor)

Known Log k (logarithm of the retention factor) results, listed for orientation:
O=C(CS(=O)(=O)c1ccccc1)c1ccc(Br)cc1 [Compound 11c] : 0.123
Cc1ccc(S(=O)(=O)CC(=O)c2ccc(Br)cc2)cc1 [Compound 11d] : 0.364
Cc1ccc(/C(CS(=O)(=O)c2ccccc2)=N\Nc2ccccc2)cc1 [Compound 17b] : 0.611
O=S(=O)(C/C(=N/Nc1ccccc1)c1ccccc1)c1ccccc1 [Compound 17a] : 0.740

P. Cc1ccc(-c2cc(C(F)(F)F)nn2-c2ccc(S(N)(=O)=O)cc2)cc1 [Celecoxib, reference compound]
Q. Cc1ccc(/C(CS(=O)(=O)c2ccccc2)=N\O)cc1 [Compound 16b]
Asked: Min Log k (logarithm of the retention factor)? P | Q Answer by stating the label of the chosen item.
Given back: Q
(Q: 0.150, P: 0.83)

====

conditions: φ 0 = − log kw/S; methanol as organic modifier, C18
result_type: φ 0 (isocratic chromatographic hydrophobicity index)

O=C(CS(=O)(=O)c1ccccc1)c1ccccc1 [Compound 11a] : 64.83
Cc1ccc(/C(CS(=O)(=O)c2ccccc2)=N\O)cc1 [Compound 16b] : 72.57
Cc1ccc(/C(CS(=O)(=O)c2ccccc2)=N\Nc2ccccc2)cc1 [Compound 17b] : 74.52
O=S(=O)(C/C(=N/Nc1ccccc1)c1ccccc1)c1ccccc1 [Compound 17a] : 77.97
O=C(CS(=O)(=O)c1ccccc1)c1ccc(Br)cc1 [Compound 11c] : 75.14
Cc1ccc(S(=O)(=O)CC(=O)c2ccc(Br)cc2)cc1 [Compound 11d] : 77.99
Cc1ccc(C(=O)CS(=O)(=O)c2ccccc2)cc1 [Compound 11b] : 69.81
O=S(=O)(C/C(=N/O)c1ccccc1)c1ccccc1 [Compound 16a] : 64.39

====

conditions: C18 column, methanol-water, 60% methanol in the mobile phase
result_type: Log k (logarithm of the retention factor)

Known Log k (logarithm of the retention factor) results, listed for orientation:
O=S(=O)(C/C(=N/Nc1ccccc1)c1ccccc1)c1ccccc1 [Compound 17a] : 0.950
O=C(CS(=O)(=O)c1ccccc1)c1ccc(Br)cc1 [Compound 11c] : 0.635

a. Cc1ccc(/C(CS(=O)(=O)c2ccccc2)=N\Nc2ccccc2)cc1 [Compound 17b]
b. Cc1ccc(/C(CS(=O)(=O)c2ccccc2)=N\O)cc1 [Compound 16b]
c. O=C(CS(=O)(=O)c1ccccc1)c1ccccc1 [Compound 11a]
d. O=S(=O)(C/C(=N/O)c1ccccc1)c1ccccc1 [Compound 16a]
e. Cc1ccc(C(=O)CS(=O)(=O)c2ccccc2)cc1 [Compound 11b]
Asked: Returns the items ordered by Log k (logarithm of the retention factor), from maximum to minimum. Rank them, then answer with their labels in that order.
Given back: a, b, e, d, c
(a: 0.847, b: 0.481, e: 0.317, d: 0.130, c: 0.088)

====

conditions: C18 column, methanol-water, 65% methanol in the mobile phase
result_type: Log k (logarithm of the retention factor)

Known Log k (logarithm of the retention factor) results, listed for orientation:
O=C(CS(=O)(=O)c1ccccc1)c1ccc(Br)cc1 [Compound 11c] : 0.501
O=S(=O)(C/C(=N/O)c1ccccc1)c1ccccc1 [Compound 16a] : 0.053
Cc1ccc(S(=O)(=O)CC(=O)c2ccc(Br)cc2)cc1 [Compound 11d] : 0.901

I. O=C(CS(=O)(=O)c1ccccc1)c1ccccc1 [Compound 11a]
II. Cc1ccc(/C(CS(=O)(=O)c2ccccc2)=N\Nc2ccccc2)cc1 [Compound 17b]
III. Cc1ccc(/C(CS(=O)(=O)c2ccccc2)=N\O)cc1 [Compound 16b]
IV. Cc1ccc(C(=O)CS(=O)(=O)c2ccccc2)cc1 [Compound 11b]
Asked: Hi! Can you put these in order of Log k (logarithm of the retention factor), lowest number first? Rank them, then answer with their labels in that order.
Given back: I, III, IV, II
